Record form. Attribute: pEC50. Fill in for each entry.
- Tested on: HBV HBsAg
- Assay overview: HBsAg reduction in HepAD38 cell line (HBsAg ELISA)
- Type: cell-based, hepatitis B virus (HBV)
- Condition parameters: Hepatitis B virus, HePAD38, 168 h, read-out: HBsAg (EC50)
One number for each entry, as −log10 of the molar value.

Check out these entries, answers already filled in.
[
  {
    "Compound": "COCCCOc1cc2c(nc1Cl)-c1cc(=O)c(C(=O)O)cn1[C@H]1[C@@H]2CCC1(C)C",
    "Measured on": "HBV HBsAg",
    "pEC50": 9.52
  },
  {
    "Compound": "COCCCOc1cc2c(cc1OC)-c1cc(=O)c(C(=O)O)cn1[C@H](C(C)C)C2 [RG7834, reference compound]",
    "Measured on": "HBV HBsAg",
    "pEC50": 8.70
  }
]

Now take the following compound into account.
Field pEC50 (entry Cc1cc2c(cc1OCC1COC1)CC1(CCC1)n1cc(C(=O)O)c(=O)cc1-2 [Compound B, reference compound] ) reads 8.52
